pIC50 by entry:
tgt: Peroxisome proliferator-activated receptor gamma (Homo sapiens)
Sequence (P37231 whole entry): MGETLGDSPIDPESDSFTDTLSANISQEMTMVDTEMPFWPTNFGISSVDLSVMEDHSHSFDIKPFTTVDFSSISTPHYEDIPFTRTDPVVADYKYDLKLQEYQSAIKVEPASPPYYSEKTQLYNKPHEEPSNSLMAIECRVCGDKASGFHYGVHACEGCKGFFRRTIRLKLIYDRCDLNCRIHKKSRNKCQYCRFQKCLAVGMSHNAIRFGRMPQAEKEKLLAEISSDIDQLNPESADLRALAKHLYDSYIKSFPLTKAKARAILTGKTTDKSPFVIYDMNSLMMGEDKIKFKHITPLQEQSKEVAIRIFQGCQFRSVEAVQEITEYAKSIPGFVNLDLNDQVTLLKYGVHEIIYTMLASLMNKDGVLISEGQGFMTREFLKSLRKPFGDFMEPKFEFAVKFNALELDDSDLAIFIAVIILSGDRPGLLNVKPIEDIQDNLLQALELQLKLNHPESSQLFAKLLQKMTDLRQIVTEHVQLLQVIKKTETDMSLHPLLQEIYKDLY
The scale used: pIC50 is minus the common logarithm of the concentration in molar units.

* COc1cc(C2NC(=O)NC(C)=C2C(=O)O)ccc1OCCOc1cccc2ccc(C)nc12 (centres undefined) | 6.10
* CC1=C(C(=O)O)C(c2ccc(OCCOc3cccc4ccc(C)nc34)cc2)NC(=O)N1 (centres undefined) | 6.22
* CC1=C(C(=O)O)C(c2ccc(OCCOc3ccc(C(=O)c4ccc(Cl)cc4)cc3)cc2)NC(=O)N1 (centres undefined) | 6.03
* CC1=C(C(=O)O)C(c2ccc(OCCOc3cc(C)nc4ccccc34)cc2)NC(=O)N1 (centres undefined) | 6.12
* CC1=C(C(=O)O)C(c2ccc(OCCCOc3cccc4[nH]c5ccccc5c34)cc2)NC(=O)N1 (centres undefined) | 6.05

Let us examine a further case.
IN: What value of pIC50 has been recorded for this entry: COc1cc(C2NC(=O)NC(C)=C2C(=O)O)ccc1OCCOc1cc(C)nc2ccccc12 (centres undefined)
OUT: 6.03

----------
tgt: Peroxisome proliferator-activated receptor gamma (Homo sapiens)
# 1 = IC50 below 800 nM (exclusive); 0 = IC50 at/above 800 nM

* CC1=C(C(=O)O)C(c2ccc(OCCn3ccc4cccnc43)cc2)NC(=O)N1 (stereo not drawn) | 0
* CC1=C(C(=O)O)C(c2ccc(OCCCOc3cc(C)nc4ccccc34)cc2)NC(=O)N1 (stereo not drawn) | 1
* COc1cc(C2NC(=O)NC(C)=C2C(=O)O)ccc1OCCn1ccc2cccnc21 (stereo not drawn) | 1
* CC1=C(C(=O)O)C(c2ccc(OCCn3c4ccccc4c4ccccc43)cc2)NC(=O)N1 (stereo not drawn) | 0
* CC1=C(C(=O)O)C(c2ccc(OCCCn3ccc4cccnc43)cc2)NC(=O)N1 (stereo not drawn) | 1

Would you kindly look at the next entry?
IN: Input CC1=C(C(=O)O)C(c2ccc(OCCOc3cccc4[nH]c5ccccc5c34)cc2)NC(=O)N1 (stereo not drawn) ; condition: IC50 strictly below 800 nM. Does it hold?
OUT: 0

Provenance of the data: ChEMBL document CHEMBL1145436
